Values compiled from PubChem BioAssay (NCI).

Test system: SK-OV-3 ovarian
protocolSummary: NCI tumour cell line growth inhibition, 48 h
Give measured TGI for each item. Keep answers brief.

Use these answered entries as a reference point.
compound	studyTarget	TGI
O=C1c2ccccc2S(=O)(=O)N1CSC(=S)N1CCCC1	SK-OV-3 ovarian	> 100 µM
CS(=O)(=O)N1CCN(Cc2cc3nc(-c4cccc5[nH]ncc45)nc(N4CCOCC4)c3s2)CC1 (tested in a mixture with another compound)	SK-OV-3 ovarian	0.328 µM
CC(C)CCCC(C)[C@H]1CC[C@H]2[C@@H]3CC[C@H]4C[C@@H](CCC=C(c5cc(Cl)c(O)c(C(=O)OC(C)(C)C)c5)c5cc(Cl)c(O)c(C(=O)OC(C)(C)C)c5)CC[C@]4(C)[C@H]3CC[C@]12C (stereo partly specified)	SK-OV-3 ovarian	> 50 µM
CCCCCCCCCCCCCCCCCCNc1ccn(C2OC(COP(=O)(O)O)C(O)C2O)c(=O)n1 (stereo unspecified)	SK-OV-3 ovarian	> 100 µM
COc1cc(NN=C(c2ccc(O)cc2)c2ccc(O)cc2)c([N+](=O)[O-])cc1[N+](=O)[O-]	SK-OV-3 ovarian	30.2 µM

Count: 4. Required value per item: TGI.
1. O=C(CCCCCCCCC(=O)NN1C(=O)/C(=C\c2ccc(O)c(O)c2)SC1c1c(O)ccc2ccccc12)NN1C(=O)C(=Cc2ccc(O)c(O)c2)SC1c1c(O)ccc2ccccc12 (stereo unspecified)
2. O=C(Nc1cnn2ccc(N3CCC[C@@H]3c3cc(F)ccc3F)nc12)N1CC[C@H](O)C1
3. CN(C)c1ccc(/C=C/c2sc3ccc4ccccc4c3[n+]2C)cc1
4. CCOC(=O)CCC(NC(=O)c1ccc(CNc2nc3cc(N)cc(N)c3nc2-c2ccccc2)cc1)C(=O)OCC (stereo unspecified)

Ans:
1. > 86.8 µM
2. > 100 µM
3. 2.4 µM
4. > 100 µM

Count: 2. Required value per item: TGI.
1. O=c1nc2n(cc1/C=C\Br)C1CC(O)C(CO2)O1 (stereo unspecified)
2. NC(=O)c1csc(C2C=CC(CO)O2)n1 (stereo unspecified)

Ans:
1: > 100 µM; 2: > 100 µM

Count: 7. Required value per item: TGI.
1. COC(=O)[C@H]1[C@H](C(=O)OC)[C@@H](C)c2c(ccc3c2[nH]c2ccccc23)[C@@H]1C
2. Nc1ccc(C#Cc2cncnc2Nc2ccc(OCc3cccc(F)c3)c(Cl)c2)cc1
3. c1ccc2nc3[nH]c4ccccc4c3cc2c1
4. CC(=O)O[C@H]1[C@@H]2[C@@H]3[C@@H](C[C@H]1C)[C@@H](C)CO[C@@]1(C)CC/C=C(/C)C[C@@H]2O[C@@H]31
5. CC12O[C@H](c3ccccc3)[C@H](c3ccccc3)N1C(=O)C1(C(=O)OCc3ccccc3)CC12 (stereo partly specified)
6. O=C1C=CC(=O)C1(Br)Br
7. CC(C)(C)OC(=O)NCCCCCCCCn1c2c(c3ccccc3c1=O)C(=O)c1ccccc1-2

Ans:
1: > 100 µM; 2: > 25 µM; 3: 79.9 µM; 4: > 100 µM; 5: > 100 µM; 6: 43.2 µM; 7: > 39.4 µM

Count: 7. Required value per item: TGI.
1. CN1CCN(c2ccc(-c3cnc4c(-c5csc6ccccc56)cnn4c3)cc2)CC1
2. O=S(=O)(NC(=S)Nc1ccccc1)c1ccc(N2N=C3c4ccccc4CC3C2c2cccs2)cc1 (stereo unspecified)
3. N/N=C1\c2ccccc2C2/C(=N\N)c3ccccc3C12 (stereo unspecified)
4. O=C1CC(Br)c2c(Cl)sc(Cl)c21 (stereo unspecified)
5. O=C(O)CCC1COc2ccccc2O1 (stereo unspecified)
6. N#Cc1c[nH]n2ccnc12
7. Cc1cccc2sc(NC(=O)c3cc([N+](=O)[O-])ccc3Cl)nc12

Ans:
["> 15 µM", "> 100 µM", "> 100 µM", "30.4 µM", "> 10 µM", "> 100 µM", "> 100 µM"]

response.value for CCc1cccc(CC)c1NC(=S)NC(=O)c1ccc(Br)cc1 (field: TGI) = > 100 µM
